Consider compounds characterized by their pKi with Mu-type opioid receptor (Homo sapiens, UniProt P35372).
Sequence (P35372 whole entry): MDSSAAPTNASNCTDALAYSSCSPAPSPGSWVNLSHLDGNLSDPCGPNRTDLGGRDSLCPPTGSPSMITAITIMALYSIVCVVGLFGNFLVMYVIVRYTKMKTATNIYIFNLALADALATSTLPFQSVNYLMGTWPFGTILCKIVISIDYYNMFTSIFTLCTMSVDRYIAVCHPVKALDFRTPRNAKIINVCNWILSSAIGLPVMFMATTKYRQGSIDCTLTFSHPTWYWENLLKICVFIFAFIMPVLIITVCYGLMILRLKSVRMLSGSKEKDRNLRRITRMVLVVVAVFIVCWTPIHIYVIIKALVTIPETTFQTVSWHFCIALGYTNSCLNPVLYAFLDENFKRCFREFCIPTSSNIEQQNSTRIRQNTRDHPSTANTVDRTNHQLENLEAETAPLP
Recall that pKi is obtained by taking minus log10 of the concentration measured in molar.

Examples with answers:
compound	recorded_metric	value_observed
CC[C@@]12CCN(CC3CC3)C(C(=O)c3ccc(C(=O)NCCc4ccc(-c5ccccc5)cc4)cc31)[C@@H]2C (mixture of isomers)	pKi	8.51
C[C@H]1C2Cc3ccc(C(=O)Nc4ccc(-c5ccccc5)cc4)cc3[C@@]1(C)CCN2CC1CC1 (mixture of isomers)	pKi	7.74

Field pKi (entry C[C@H]1C2Cc3ccc(C(=O)NCCCc4ccccc4)cc3[C@@]1(C)CCN2CC1CC1 (mixture of isomers) ) reads 8.60

Field pKi (entry CC[C@@]12CCN(CC3CC3)C(C(=O)c3ccc(C(N)=O)cc31)[C@@H]2C ) reads 8.68

Field pKi (entry C[C@H]1C2Cc3ccc(C(=O)NCCc4ccccc4)cc3[C@@]1(C)CCN2CC1CC1 (mixture of isomers) ) reads 8.46

Field pKi (entry C[C@H]1C2Cc3ccc(C(=O)Nc4ccccc4)cc3[C@@]1(C)CCN2CC1CC1 ) reads 6.08

Field pKi (entry C[C@H]1C2Cc3ccc(C(=O)NCc4ccc(-c5ccccc5)cc4)cc3[C@@]1(C)CCN2CC1CC1 (mixture of isomers) ) reads 7.96

Field pKi (entry C[C@H]1C2Cc3ccc(C(=O)NCc4ccccc4)cc3[C@@]1(C)CCN2CC1CC1 (mixture of isomers) ) reads 7.57

Field pKi (entry C[C@H]1C2Cc3ccc(C(=O)N(C)CCc4ccc(-c5ccccc5)cc4)cc3[C@@]1(C)CCN2CC1CC1 (racemic) ) reads 8.17
